System: HeLa MZ
assay_protocol: whole-cell filipin (free cholesterol) integrated intensity, Z-score; higher = more cholesterol staining
conditions_used: compound concentration in added solution (µM; 5 µl added to 20 µl cells): 10; 18 h
Counter-ions that a name gives are not always drawn.
Records here are stratified by whole-cell filipin (z-score); strata: low-valued = under -0.6, mid-valued = from -0.6 up to -0.2, high-valued = -0.2 and over

[[record]]
compound = "CO[C@H]1/C=C/O[C@@]2(C)Oc3c(C)c(O)c4c(c3C2=O)C2=NC3(CCN(CC(C)C)CC3)NC2=C(NC(=O)/C(C)=C\\C=C\\[C@H](C)[C@H](O)[C@@H](C)[C@@H](O)[C@@H](C)[C@H](OC(C)=O)[C@@H]1C)C4=O"
discrete_label = "high-valued"

[[record]]
compound = "CC(=O)OCC(=O)[C@@]12N=C(C)O[C@@H]1C[C@H]1[C@@H]3CCC4=CC(=O)C=C[C@]4(C)[C@H]3[C@@H](O)C[C@@]12C"
discrete_label = "high-valued"

[[record]]
compound = "Cc1nnc(NS(=O)(=O)c2ccc(N)cc2)s1"
discrete_label = "low-valued"

[[record]]
compound = "OCCN1C[C@H](O)[C@@H](O)[C@H](O)[C@H]1CO"
discrete_label = "low-valued"

[[record]]
compound = "CCCCC[C@H](O)/C=C/[C@@H]1[C@@H](C/C=C\\CCCC(=O)O)[C@@H](O)C[C@H]1O"
discrete_label = "mid-valued"

[[record]]
compound = "CCCNC(C)C(=O)Nc1ccccc1C (stereo not given) [Prilocaine hydrochloride]"
discrete_label = "mid-valued"

[[record]]
compound = "CC(C)COCC(CN(Cc1ccccc1)c1ccccc1)N1CCCC1 (stereo not given) [Bepridil hydrochloride]"
discrete_label = "low-valued"

[[record]]
compound = "CC(C)[C@H](N)C(=O)OCCOCn1cnc2c(=O)nc(N)[nH]c21 [Valacyclovir hydrochloride]"
discrete_label = "mid-valued"

[[record]]
compound = "CCCc1nc(C)c2c(=O)nc(-c3cc(S(=O)(=O)N4CCN(CC)CC4)ccc3OCC)[nH]n12"
discrete_label = "high-valued"

[[record]]
compound = "COC(=O)N/N=C/c1c[n+]([O-])c2ccccc2[n+]1[O-]"
discrete_label = "mid-valued"

[[record]]
compound = "Oc1c(I)cc(Cl)c2cccnc12"
discrete_label = "high-valued"

[[record]]
compound = "CC(=O)N(CC(O)CN(C(C)=O)c1c(I)c(C(=O)NCC(O)CO)c(I)c(C(=O)NCC(O)CO)c1I)c1c(I)c(C(=O)NCC(O)CO)c(I)c(C(=O)NCC(O)CO)c1I (stereo not given)"
discrete_label = "mid-valued"

[[record]]
compound = "CC(=O)Oc1cc(C(C)C)c(OCCN(C)C)cc1C [Moxisylyte hydrochoride]"
discrete_label = "low-valued"

[[record]]
compound = "CN1C(C(=O)Nc2ccccn2)=C(O)c2ccccc2S1(=O)=O"
discrete_label = "low-valued"


====

System: HeLa MZ
assay_protocol: LBPA endosome anti-LBPA integrated intensity (sum per cell), Z-score; higher = more LBPA staining
conditions_used: compound concentration in added solution (µM; 5 µl added to 20 µl cells): 10; 18 h
Counter-ions that a name gives are not always drawn.
Measured LBPA endosome anti-LBPA integrated intensity (z-score) of individual entries
outcome_measure: LBPA endosome anti-LBPA integrated intensity (z-score)

[[record]]
compound = "CC(C(O)c1ccc(O)cc1)N1CCC(Cc2ccccc2)CC1 (stereo not drawn) [Ifenprodil tartrate]"
experimental_value = -0.296

[[record]]
compound = "CC1=Nc2ccc(Cl)cc2S(=O)(=O)N1 [Diazoxide]"
experimental_value = -1.17

[[record]]
compound = "CCCCC(CC)CN1CN(CC(CC)CCCC)CC(C)(N)C1 (stereo not drawn)"
experimental_value = -1.15

